Where do these numbers come from? They come from the supplement of paper PMC10567573.

B1: CCND2 (parent)
chain: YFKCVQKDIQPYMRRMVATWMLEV

Variants of: B1
assaySummary: protein stability index of a GFP-peptide fusion (GPS, HEK-293T) (PSI 1-6); higher = more stable;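 also: lentivirally expressed fusions sorted by FACS into six bins by GFP to DsRed ratio, PSI derived from sequencing read proportions per bin multiplied by bin number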
experimentalContext: c terminus: a fixed tail appended
experimentalEndpoint: protein stability index
Please reply with the number alone, leaving off any unit.

For YFKCVQKDIQPYMRRMVATWPLEV [M21P] , what is its reported protein stability index?
2.24

What about YFKCVQKLIQPYMRRMVATWMLEV [D8L] ?
2.05

What about YFKCVQKDIQPYMRLMVATWMLEV [R15L] ?
2.33

What about YFKCVQNDIQPYMRRMVATWMLEV [K7N] ?
2.66

What about YFKCVQKDIQPYMRRMQATWMLEV [V17Q] ?
2.63

What about YFKCVQKDIQPYMRRKVATWMLEV [M16K] ?
2.67

What about YFKCVQKDIQPYMRRMVAKWMLEV [T19K] ?
3

What about YFKCVQKDIQPRMRRMVATWMLEV [Y12R] ?
4.86

What about YFKCVQKDIQPYMRRMVRTWMLEV [A18R] ?
4.17

What about YEKCVQKDIQPYMRRMVATWMLEV [F2E] ?
4.07

What about YFSCVQKDIQPYMRRMVATWMLEV [K3S] ?
3.75

What about KFKCVQKDIQPYMRRMVATWMLEV [Y1K] ?
3.54

What about YFKCVQKDIQPYMRRMVAFWMLEV [T19F] ?
2.85

What about YFKCVQKDIQPYMRRMVATWMLTV [E23T] ?
2.88
